Provenance of the data: the Human Domainome abundance scans (Beltran et al. 2025)

B1: Chromodomain-helicase-DNA-binding protein 3, residues 374 to 426; numbered along this chain, Q12873 (parent)
chain: YETDHQDYCEVCQQGGEIILCDTCPRAYHLVCLDPELDRAPEGKWSCPHCEKE

Variants of: B1
Procedure Summary: abundance fitness (aPCA) (normalised: wild type 0, dead -1); higher = more abundant; growth selection in yeast, the domain comes from the species named
Measurement Context: Homo sapiens
Measurement Label: abundance fitness
Reply with the value as a number alone.

# example entries with known answers
Mutation List	abundance fitness
D4Y	-0.126
D7Q	-0.146

## Task Field request: abundance fitness | item: L33V
## Result -0.182

## Task Also V11C ?
## Result 0.184

## Task Here is the next variant: G16F
## Result -0.156

## Task Param item: L20N
## Result 0.101

## Task One more variant: D4Q
## Result 0.075
